The reader will find reported melting point values listed item by item below.

Worked cases, melting point given:
mol_smiles	melting point
Cc1ccc(NC(=O)N[C@]2(C3CCCCC3)N=Cc3ccccc3N(C)C2=O)cc1Nc1nnn[nH]1	190 to 193 °C
OCc1snc(Cl)c1Cl	94 to 95 °C

Proceeding to the next molecule to report its melting point.
Please report the recorded melting point for Cn1c(=O)[nH]c(=O)c2c1ncn2CC1OCCO1 .
276 to 278 °C

----------
The reader will find reported melting point values listed item by item below.

Worked cases, melting point given:
compound	experimental_result
O=C1C=CC2(C=C1)N=C(N1CCN(Cc3ccccc3)CC1)C=C2c1ccccc1	190 °C
COc1cc2c(cc1O)CCN(Cc1cc(F)cc(F)c1)C2	110 to 111 °C
CC1(C)CC(NC(=O)c2cc(N)cc(N)c2)CC(C)(C)N1	188 to 190 °C
Cc1nc(C)c(C(C)(O)c2cocc2Br)o1 (configuration not stated)	124 to 125 °C

Please report the recorded melting point for Cc1c(Cc2ccc(Cl)cc2)c(=O)oc2cc(O)cc(O)c12 .
270 to 278 °C

Do the same for CC(C)OCc1nc(C(C)(C)O)c(C(=O)O)n1Cc1ccc(-c2ccccc2-c2nnn[nH]2)cc1 please
153 to 161 °C

Do the same for CCCCCS(=O)(=O)NC(=O)CCc1ccc(OCCOCCOC)cc1Oc1ncc(C(F)(F)F)cc1Cl please
76 to 77.5 °C

----------
The reader will find reported melting point values listed item by item below.

Worked cases, melting point given:
compound	melting point
CC(=O)SCC(=O)c1cc(S(=O)(=O)N(C)C)ccc1Cl	84 to 88 °C
O=c1nc(O)ccc2ccccc12	129 to 131 °C
Cc1cc(N)c(C)c(Cl)c1Oc1ccc(Cl)c2ccccc12	118 to 125 °C
O=C1CC(C(=O)O)NN1 (centres undefined)	188 to 190 °C
CCCCOC1OC(CO)C(O)C(O)C1(O)N(Cc1cccc(C)c1C)C(=O)N(CCCl)N=O (centres undefined)	90 to 92 °C
CCc1cc(OC)c(-c2csc(NC(=O)c3cc4ccccc4[nH]3)n2)c(OC)c1	> 260 °C
CON(c1ccc([N+](=O)[O-])cc1C#N)S(=O)(=O)c1ccc(Cl)c(C(F)(F)F)c1	140 to 142 °C
CCNc1c(OC)cc(C(=O)OC)cc1OC	50 to 51 °C
O=c1ccccn1C1=CC(CF)(CF)Oc2ccc(C(F)(F)C(F)(F)F)cc21	137 to 138 °C
CC(=O)N1CCC(NC(=O)Nc2ccc(F)cc2)CC1	146 to 148 °C

Please report the recorded melting point for CCCC(CCCCCN1C(=O)c2ccccc2C1=O)(C(=O)OCC)C(=O)OCC .
51 to 52 °C

Do the same for COC(=O)c1cc(O)c(O)c(OC)c1 please
110 to 111 °C

Do the same for COc1cc(N)c(Cl)cc1C(=O)NC1CCN(CC2CCN(C(=O)Nc3ccccc3)CC2)CC1 please
212 to 214 °C

Do the same for c1ccc(Cc2nc3cnc4ccccc4c3s2)cc1 please
111 to 113 °C

----------
The reader will find reported melting point values listed item by item below.

molecule	outcome_measure	experimental_result
O=C(O)C(CC(=O)N1CCOCC1)Cc1cccc2ccccc12 (centres undefined)	melting point	62 to 66 °C
COc1ccc(-c2nc(SC)[nH]c2-c2ccc(OC)cc2)cc1	melting point	157 to 158 °C
CC(Cc1ccc(OCCCCO)cc1)NCC(O)c1cccc(C(F)(F)F)c1 (centres undefined)	melting point	69 to 76 °C

Please report the recorded melting point for O=C(NCC(O)(Cn1cncn1)c1ccc(Cl)cc1Cl)c1cccnc1 (centres undefined) .
175 °C

Do the same for O=C1OCCC1Oc1cc(F)ccc1[N+](=O)[O-] (centres undefined) please
98 to 100 °C

Do the same for CCOC(=O)NC(=O)C(C#N)=CNc1c(Cl)cc(Cl)cc1Cl please
245 to 247 °C

Do the same for COc1ccc(Nc2nc3ccccc3c3[nH]c(C4CCCC4)nc23)cc1 please
106 to 107 °C

Do the same for Cc1ccc(-n2c(-c3cc(-c4ccc(S(C)(=O)=O)cc4)c(N4CCOCC4)s3)nc3ccccc3c2=O)cc1 please
265 to 268 °C

Do the same for CC(C)OP(=O)(/C=C/CCn1cnc2c(N)nc(N)nc21)OC(C)C please
211 to 213 °C
